Overview of reported Trimeric HA Binding: RLU across a group of binders:
studyTarget: recombinant homotrimeric HA A/common magpie/Hong Kong/5052/07 H5N1 (Influenza A virus A/common magpie/Hong Kong/5052/2007(H5N1))
testProtocol: protein microarray, purified IgG, trimeric HA
settings: remark: other sources report otherwise

binder	result
TCN-538 (3206_O17) (antibody, V domains shown) VH: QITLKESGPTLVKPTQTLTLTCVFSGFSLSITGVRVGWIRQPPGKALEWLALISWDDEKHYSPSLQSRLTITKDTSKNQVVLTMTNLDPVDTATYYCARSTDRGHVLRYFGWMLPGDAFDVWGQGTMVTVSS VL: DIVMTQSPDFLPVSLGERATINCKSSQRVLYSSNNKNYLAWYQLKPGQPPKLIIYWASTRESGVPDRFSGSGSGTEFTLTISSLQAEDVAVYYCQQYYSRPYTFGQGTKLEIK	5140 RLU

API: the following record is the query input.
Trimeric HA Binding: RLU measured on TCN-543 (5081_G23) (antibody, V domains shown) VH: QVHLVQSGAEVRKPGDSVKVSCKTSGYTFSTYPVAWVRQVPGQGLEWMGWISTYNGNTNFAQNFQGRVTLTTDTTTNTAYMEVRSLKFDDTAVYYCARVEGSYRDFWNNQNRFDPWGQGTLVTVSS VL: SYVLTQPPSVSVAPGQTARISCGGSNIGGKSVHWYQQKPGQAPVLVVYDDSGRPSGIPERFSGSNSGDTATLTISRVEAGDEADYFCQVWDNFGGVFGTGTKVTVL = 679 RLU

Measured values drawn from patent US20150086555A1 for this set.
